- targetOfAssay: T1, hCMV gH, gL, UL128, UL130 and UL131A co-expressed in HEK293T cells (human cytomegalovirus, UniProt P12824 24-743; P16832 31-278; P16837 1-171; P16772 1-214)
- T1 construct: whole, on cells; also called gH + gL + UL128 + UL130 + UL131A; gH/gL/UL128-130 complex
- methodDescription: cell cross-competition, 20x excess; competitor 2F4-biotin
testReadout: Inhibition of binding (%)
Report as a plain number; the unit % is understood.

See these solved cases before continuing.
1. 8J16 (antibody, V domains shown, human IgG mAb; also called 8J16-biotin) VH: QVQLQESGPGLVKPSETLSLTCSVSGGFTSSYYWSWIRQAPGKGLEWIGYVYYGESTDYNPSLKSRATISIDTSKNQFSLKLSSVTAADTAVYYCAREVDKRGFDYWGQGALVTVSS VL: EIVLTQSPGTLSLSPGERATLSCRASQSVSGGYLAWYQQEPGQAPRLVIYGASSRATGIPDRFSASGSGTDFTLTITRLEPEDFAVYYCQQYGRTPLTFGGGTKVEIK : 0
2. 10F7 (antibody, V domains shown, human IgG mAb; also called 10F7-biotin) VH: EVQLVESGGGLVQPGRSLRLSCTASGFTFGDYAMSWFRQAPGKGLEWVGFIRSKAYGGTTEYAASVKGRFTISRDDSKSIAYLQMNSLKTEDTAVYYCTRASSLLWLLNPQPNFDYWGQGTLVTVSS VL: SYVLTQPPSVSVAPGQTARITCGGNNIGSNNVHWYQQKPGQAPVLVVYDDSDRPSGIPERFSGSNSGNTATLTISRVEAGDEADYYCQVWDSSSDHPVFGGGTKLTVL : 100
3. 15D8 (antibody, V domains shown, human IgG mAb; also called 15D8-biotin) VH: EVQLVQSGAEVKKPGESLKISCQASGYSFTNYWIAWVRQMPGKGLEWMGIIYPGDSDIKYSPSFRGQVTISADKSISNAFLQWRSLRASDTAMYYCARHAIRGDGFDYWGQGTLVTVSS VL: SYELTQPPSVSVSPGQTATITCSGDKLGEKYACWYQQKPGQSPVLVMYQDTKRPSGIPERFSGSNSGNTATLTISGTRAMDEADYYCQAWDTNTVIFGGGTKLTVL : 0
4. 9I6 (antibody, V domains shown, human IgG mAb; also called 9I6-biotin; 916) VH: EVQLVQSGAEVKKPGESLKISCRESGDTFPAYWIAWVRQMPGKGLEWMGIIYPIDSETTYSPSFQGQVTISADKSINTAYLQWSSLKASDSAIYYCARGTSTGLREAFHIWGQGTMVTVSS VL: DVVMTQSPLSLAVTLGQPAYISCRSSQSLGYSDGNTYLNWFQQRPGQSPRRLIYEVSNRDSGVPDRFSGSGSGTDFTLKISRVEAEDVGTYYCMQGTHWPPMCSFGQGTKLEIK : 0
5. 4I22 (antibody, V domains shown, human IgG mAb; also called 4I22-biotin) VH: QVQLVESGGGVVQPGRSLRLSCVASGFTFSSYAMHWVRQAPGKGLEWVAVISYDGDNKFYADSVKGRFRISRDTSKNTLYLEMNSLRAADTAIYYCAREELVGLMPPYYNYGLDVWGQGTTVTVSS VL: QSVLTQPPSVSAAPGQKVTISCSGSNSNIGNNYVSWYQQLPGRAPKLLIYDNDHRPSGIPDRFSGSKSGTSATLVITGLQTGDEADYYCETWDTSLSAAVVFGGGTKLTVL : 100
6. 10P3 (antibody, V domains shown, human IgG mAb) VH: EVQLVESGGGLVRPGGSLRLSCAASGFTFHNYRMNWVRQAPGKGLEWVANIKQDGSEKSYVDSVRGRFTTSRDNSKNSLYLQINSLRAEDTAVYYCARGEGYTYGVVYSYSAMDVWGQGTTVIVSS VL: SYELTQPPSVSVSPGQTARITCSGNVLPNQYASWYQQKPGQAPVLVIYKDTERPSGIPGRFSGSSSGTTVTLTISGVQAEDEADYYCQSADSSGADYVFGTGTKVTVL : 0

Entry under test: 4N10 (antibody, V domains shown, human IgG mAb; also called 4N10-biotin) VH: QVQLVQSGAEVKKPGSSVRVSCKASGGTFSSYVIIWVRQAPGQGLEWMGGVIPIFDTVNYAQKFQGRVTITADESTSTAYMELSSLKSEDTAVYYCARGILAYCGGDCYNTPYGMDVWGQGTTVTVSS VL: DIQMTQSPSILSASVGDRVTITCRASQSISSWLAWYQQKPGKAPKLLIYKASSLEIGVPSRISGSGSGTEFTLTISSLQPDDFATYYCQQYNSSWTFGQGTKVEIK . Its Inhibition of binding (%) was 0

For 2C12 (antibody, V domains shown, human IgG mAb; also called 2C12-biotin) VH: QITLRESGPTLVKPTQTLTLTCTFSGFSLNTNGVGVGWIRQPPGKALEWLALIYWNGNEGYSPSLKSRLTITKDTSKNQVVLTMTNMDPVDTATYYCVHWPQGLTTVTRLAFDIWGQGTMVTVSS VL: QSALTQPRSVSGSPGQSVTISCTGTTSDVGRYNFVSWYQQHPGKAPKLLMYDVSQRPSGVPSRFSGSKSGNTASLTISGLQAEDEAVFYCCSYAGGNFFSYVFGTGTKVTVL the binder record lists Inhibition of binding (%) as 0
